These entries and their values trace back to patent US11001587B2.

Consider molecules characterized by their IC50 with PI3Kβ (Homo sapiens, UniProt P42338).
Sequence (P42338 whole entry, species assumed): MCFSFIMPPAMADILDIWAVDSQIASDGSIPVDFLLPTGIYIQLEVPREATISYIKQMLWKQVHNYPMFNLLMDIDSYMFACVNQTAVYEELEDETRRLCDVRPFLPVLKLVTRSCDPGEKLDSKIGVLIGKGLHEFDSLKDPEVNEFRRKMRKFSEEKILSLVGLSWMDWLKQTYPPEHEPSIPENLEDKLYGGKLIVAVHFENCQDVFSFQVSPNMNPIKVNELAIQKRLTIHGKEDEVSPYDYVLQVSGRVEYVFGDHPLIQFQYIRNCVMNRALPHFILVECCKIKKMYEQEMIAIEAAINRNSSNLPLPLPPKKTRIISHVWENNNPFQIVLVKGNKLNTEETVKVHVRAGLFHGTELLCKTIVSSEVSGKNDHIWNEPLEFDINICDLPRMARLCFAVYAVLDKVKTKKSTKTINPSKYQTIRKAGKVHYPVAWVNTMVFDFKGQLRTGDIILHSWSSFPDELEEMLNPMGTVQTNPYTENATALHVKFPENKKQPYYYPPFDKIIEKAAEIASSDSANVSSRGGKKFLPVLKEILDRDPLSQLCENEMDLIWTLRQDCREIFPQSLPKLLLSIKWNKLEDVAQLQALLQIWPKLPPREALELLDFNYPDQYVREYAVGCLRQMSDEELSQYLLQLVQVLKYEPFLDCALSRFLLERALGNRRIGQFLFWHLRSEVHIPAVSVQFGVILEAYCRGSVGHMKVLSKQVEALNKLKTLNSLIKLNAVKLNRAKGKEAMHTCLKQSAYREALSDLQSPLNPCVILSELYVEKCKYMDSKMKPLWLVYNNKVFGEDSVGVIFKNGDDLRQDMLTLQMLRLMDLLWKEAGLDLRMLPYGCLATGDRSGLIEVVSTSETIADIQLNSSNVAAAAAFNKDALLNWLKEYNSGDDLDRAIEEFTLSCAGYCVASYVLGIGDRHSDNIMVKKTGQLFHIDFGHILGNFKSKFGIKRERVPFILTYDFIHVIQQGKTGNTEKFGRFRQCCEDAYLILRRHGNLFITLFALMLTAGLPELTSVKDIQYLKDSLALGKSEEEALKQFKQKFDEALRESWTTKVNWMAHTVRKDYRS
Sequence (P27986 whole entry partner, species assumed): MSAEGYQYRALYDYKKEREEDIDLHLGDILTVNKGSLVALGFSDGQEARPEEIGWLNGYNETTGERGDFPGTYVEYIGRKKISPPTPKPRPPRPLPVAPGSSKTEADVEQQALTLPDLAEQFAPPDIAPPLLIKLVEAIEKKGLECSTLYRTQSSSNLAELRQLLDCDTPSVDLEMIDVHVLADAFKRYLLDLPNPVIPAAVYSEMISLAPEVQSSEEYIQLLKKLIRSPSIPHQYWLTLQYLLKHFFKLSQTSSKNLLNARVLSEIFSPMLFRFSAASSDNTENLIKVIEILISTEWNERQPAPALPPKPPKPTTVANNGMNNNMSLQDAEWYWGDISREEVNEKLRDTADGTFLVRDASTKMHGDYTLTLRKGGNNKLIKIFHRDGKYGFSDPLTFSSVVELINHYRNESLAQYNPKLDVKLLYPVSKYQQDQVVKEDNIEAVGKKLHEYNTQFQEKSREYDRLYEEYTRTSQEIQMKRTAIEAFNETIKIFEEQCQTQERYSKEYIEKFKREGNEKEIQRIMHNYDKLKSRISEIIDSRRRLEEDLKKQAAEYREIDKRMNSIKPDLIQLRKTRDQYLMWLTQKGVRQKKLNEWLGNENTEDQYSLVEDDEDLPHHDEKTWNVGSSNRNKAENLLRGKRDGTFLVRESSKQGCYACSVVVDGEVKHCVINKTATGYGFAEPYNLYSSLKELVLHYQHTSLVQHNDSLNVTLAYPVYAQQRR
Quantity: IC50 (nM)

> print(dat)
                                smiles.code  quantity  qualifier.sign   val
1  Cc1nc(NCc2ccncc2)n2nc(C)c(-c3ccc4c(c3)c(C)nn4C)c2n1      IC50               >  1000
2  Cc1ccc(CNc2cc(C)nn3c(-c4ccc5c(c4)c(C)nn5C)c(C)nc23)cn1      IC50               =  1700
3  Cc1cc(NCc2ccncc2)n2nc(C)c(-c3ccc4c(c3)c(C)nn4C)c2n1      IC50               =  1500
4  Cc1cc(NCc2ccc(S(C)(=O)=O)cc2)n2nc(C)c(-c3ccc4c(c3)c(C)nn4C)c2n1      IC50               >  1000

----------
Assay Summary: in vivo
Design: species or system Sprague Dawley rats
Experimental Conditions: male, Sprague Dawley, rat, po, 50 mg/kg
# AUC(0-t) per entry
Quantity: AUC(0-t) (ng·h/mL)

> print(dat)
                                smiles.code  output.unit     val
1  Cc1ccc(CNc2cc(C)nn3c(-c4ccc5c(c4)c(C)nn5C)c(C)nc23)cn1      ng·h/mL   58600
2  Cc1cc(NCc2ccc(S(C)(=O)=O)cc2)n2nc(C)c(-c3ccc4c(c3)c(C)nn4C)c2n1      ng·h/mL   30000
3  Cc1cc(NCc2ccncc2)n2nc(C)c(-c3ccc4c(c3)c(C)nn4C)c2n1      ng·h/mL  185000
4  Cc1cc(NCc2ccc(S(N)(=O)=O)cc2)n2nc(C)c(-c3ccc4c(c3)c(C)nn4C)c2n1      ng·h/mL   62100
5  Cc1cc(NCc2ccncc2)c2nc(C)c(-c3ccc4c(c3)c(C)nn4C)n2n1      ng·h/mL   22200
6  Cc1nc(NCc2ccncc2)n2nc(C)c(-c3ccc4c(c3)c(C)nn4C)c2n1      ng·h/mL  110000

----------
# IC50 per entry
Tested on: coxsackie B3 virus
Assay Summary: In vitro CPE assay in mammalian cell culture, B3
Format: cell-based
Experimental Conditions: Enterovirus B, viral cytopathic effect in mammalian cell culture, read-out: B3 inhibition capacity (IC50)
Quantity: IC50

> print(dat)
                                smiles.code       val
1  Cc1ccc(CNc2cc(C)nc3c(-c4ccc5c(c4)c(C)nn5C)c(C)nn23)cn1   < 10 nM
2  Cc1cc(NCc2cccs2)c2nc(C)c(-c3ccc4c(c3)c(C)nn4C)n2n1  < 100 nM
3  Cc1ccc(CNc2nc(C)nc3c(-c4ccc5c(c4)c(C)nn5C)c(C)nn23)cn1    < 1 nM
4  Cc1nc(NCc2ccc(S(N)(=O)=O)cc2)n2nc(C)c(-c3ccc4c(c3)c(C)nn4C)c2n1  < 100 nM

----------
# NOAEL at 7 days per entry
Assay Summary: in vivo
Design: species or system Sprague Dawley rats
Experimental Conditions: Sprague Dawley, rat, po
Quantity: NOAEL at 7 days

> print(dat)
                                smiles.code           val
1  Cc1cc(NCc2ccc(S(C)(=O)=O)cc2)n2nc(C)c(-c3ccc4c(c3)c(C)nn4C)c2n1  50 mg/kg/day
2  Cc1cc(NCc2ccncc2)n2nc(C)c(-c3ccc4c(c3)c(C)nn4C)c2n1  60 mg/kg/day

----------
# IC50 per entry
System: coxsackie B3 virus
Assay Summary: In vitro CPE assay in mammalian cell culture, B3
Type: cell-based
Experimental Conditions: Enterovirus B, viral cytopathic effect in mammalian cell culture, read-out: B3 inhibition capacity (IC50)
Quantity: IC50

> print(dat)
                                   molecule        val
1  COc1ccc(CNc2cc(C)nc3c(-c4ccc5c(c4)c(C)nn5C)c(C)nn23)cn1 [Example 14]    < 10 nM
2  Cc1cc(NCc2ccc(Cl)cc2)n2nc(C)c(-c3ccc4c(c3)c(C)nn4C)c2n1 [Example 11]  < 1000 nM
3  Cc1nc(NCc2ccc(Cl)cc2)n2nc(C)c(-c3ccc4c(c3)c(C)nn4C)c2n1 [Example 24]   < 100 nM
4  Cc1ccc(CNc2cc(C)nn3c(-c4ccc5c(c4)c(C)nn5C)c(C)nc23)cn1 [Example 2]    < 10 nM
5  Cc1nc(NCc2cccs2)n2nc(C)c(-c3ccc4c(c3)c(C)nn4C)c2n1 [Example 27]    < 10 nM
6  Cc1nc(NCc2ccncc2)n2nc(C)c(-c3ccc4c(c3)c(C)nn4C)c2n1 [Example 20]     < 1 nM
7  Cc1cc(NCc2ccc(S(C)(=O)=O)cc2)n2nc(C)c(-c3ccc4c(c3)c(C)nn4C)c2n1 [Example 12]     < 1 nM
8  Cc1cc(NCc2ccncc2)c2nc(C)c(-c3ccc4c(c3)c(C)nn4C)n2n1 [Example 1]     < 1 nM

----------
System: Enterovirus 6
Assay Summary: In vitro CPE assay in mammalian cell culture, EV6
Format: cell-based
Experimental Conditions: viral cytopathic effect in mammalian cell culture, read-out: EV6 inhibition capacity (IC50)
Quantity: IC50

> print(dat)
                                smiles.code        val
1  Cc1cc(NCc2ccncc2)c2nc(C)c(-c3ccc4c(c3)c(C)nn4C)n2n1    < 10 nM
2  Cc1cc(NCc2cccs2)c2nc(C)c(-c3ccc4c(c3)c(C)nn4C)n2n1   < 100 nM
3  Cc1cc(NCc2ccc(S(N)(=O)=O)cc2)n2nc(C)c(-c3ccc4c(c3)c(C)nn4C)c2n1  < 1000 nM
4  Cc1nc(NCc2ccc(S(C)(=O)=O)cc2)n2nc(C)c(-c3ccc4c(c3)c(C)nn4C)c2n1    < 10 nM
5  COc1ccc(CNc2cc(C)nn3c(-c4ccc5c(c4)c(C)nn5C)c(C)nc23)cn1  < 1000 nM
6  Cc1nc(NCc2ccc(Cl)cc2)n2nc(C)c(-c3ccc4c(c3)c(C)nn4C)c2n1  < 1000 nM

----------
Assay Summary: in vivo
Set-up: species or system Sprague Dawley rats
Experimental Conditions: male, Sprague Dawley, rat, po, 50 mg/kg
Quantity: AUC(0-inf) (ng·h/mL)

> print(dat)
                                   compound    val
1  Cc1cc(NCc2ccc(S(N)(=O)=O)cc2)n2nc(C)c(-c3ccc4c(c3)c(C)nn4C)c2n1 [Example 13]  76100
2  Cc1cc(NCc2ccc(S(C)(=O)=O)cc2)n2nc(C)c(-c3ccc4c(c3)c(C)nn4C)c2n1 [Example 12]  73300
3  Cc1ccc(CNc2cc(C)nn3c(-c4ccc5c(c4)c(C)nn5C)c(C)nc23)cn1 [Example 2]  64100

----------
System: coxsackie B2 virus
Assay Summary: In vitro CPE assay in mammalian cell culture, B2
Assay type: cell-based
Experimental Conditions: viral cytopathic effect in mammalian cell culture, read-out: B2 inhibition capacity (IC50)
Quantity: IC50

> print(dat)
                                smiles.code  experimental.target  quantity       val
1  Cc1cc(NCc2ccc(C(F)(F)F)nc2)n2nc(C)c(-c3ccc4c(c3)c(C)nn4C)c2n1   coxsackie B2 virus      IC50    < 1 µM
2  COc1ccc(CNc2cc(C)nn3c(-c4ccc5c(c4)c(C)nn5C)c(C)nc23)cc1   coxsackie B2 virus      IC50    < 1 µM
3  Cc1cc(NCc2cccs2)n2nc(C)c(-c3ccc4c(c3)c(C)nn4C)c2n1   coxsackie B2 virus      IC50  < 0.1 µM

----------
Assay Summary: in vivo
Design: species or system Sprague Dawley rats
Experimental Conditions: male, Sprague Dawley, rat, po, 50 mg/kg
# Tmax per entry
Quantity: Tmax (h)

> print(dat)
                                   compound  output.unit  val
1  Cc1cc(NCc2ccc(S(N)(=O)=O)cc2)n2nc(C)c(-c3ccc4c(c3)c(C)nn4C)c2n1 [Example 13]            h    2
2  Cc1ccc(CNc2cc(C)nn3c(-c4ccc5c(c4)c(C)nn5C)c(C)nc23)cn1 [Example 2]            h  1.7
3  Cc1nc(NCc2ccncc2)n2nc(C)c(-c3ccc4c(c3)c(C)nn4C)c2n1 [Example 20]            h    2
